The compounds listed here are annotated with their MIC.
Tested on: Pseudomonas aeruginosa 21-75
Assay: MIC, serial dilution on nutrient agar
Type: cell-based
Details: 2175, 37° C., 18 hours
Result Type: MIC

INSERT INTO results (compound, assayed_target, result) VALUES
  ('C[C@H]1O[C@H](O[C@@H]2[C@@H](O)[C@H](O[C@H]3O[C@H](CN)CC[C@H]3N)[C@@H](N)C[C@H]2NC(=O)[C@@H](O)CCN)[C@H](O)[C@@H](N)[C@@H]1O', 'Pseudomonas aeruginosa 21-75', '100 µg/mL'),
  ('C[C@@H]1C[C@H](N)[C@@H](O)[C@@H](O[C@@H]2[C@@H](O)[C@H](O[C@H]3O[C@H](CN)CC[C@H]3N)[C@@H](N)C[C@H]2NC(=O)[C@@H](O)CCN)O1', 'Pseudomonas aeruginosa 21-75', '> 100 µg/mL'),
  ('C[C@H]1O[C@H](O[C@@H]2[C@@H](O)[C@H](O[C@H]3O[C@H](CN)CC[C@H]3N)[C@@H](N)C[C@H]2N)[C@H](O)[C@@H](N)[C@@H]1O', 'Pseudomonas aeruginosa 21-75', '> 100 µg/mL'),
  ('NC[C@@H]1CC[C@@H](N)[C@@H](O[C@H]2[C@H](O)[C@@H](O[C@H]3O[C@H](CO)[C@@H](O)[C@H](N)[C@H]3O)[C@H](N)C[C@@H]2N)O1 [DKB, 3'',4''-dideoxykanamycin B, reference compound]', 'Pseudomonas aeruginosa 21-75', '> 100 µg/mL'),
  ('C[C@@H]1C[C@H](N)[C@@H](O)[C@@H](O[C@@H]2[C@@H](O)[C@H](O[C@H]3O[C@H](CN)CC[C@H]3N)[C@@H](N)C[C@H]2N)O1', 'Pseudomonas aeruginosa 21-75', '> 100 µg/mL');

These measurements were taken from patent US4332794A.
